- Read-out: Human Leukocyte Antigen - DR isotype (HLADR), HLA-DRA (gene 3122)
- experiment_description: BSK_CASM3C_HLADR: BioMAP Diversity Plus: CASM3C Assay for Human Leukocyte Antigen - DR isotype (HLADR) Biomarker Activity (AID 2283043);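 further: cell-surface HLA-DR protein level quantified by ELISA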
- reported_conditions: primary human coronary artery smooth muscle cells; actives raise or lower the signal
Active and inactive are the calls of the source. How the source made its calls: active means hit-call score of the fitted dose curve at least 0.9, where 1 is the maximum; inactive means score below 0.9.
The reply should be one of these categories: active, inactive

The following molecules have reported results that may help.
molecule	assigned_class
CCC1(c2ccccc2)C(=O)N=C(O)NC1=O (centres undefined)	inactive
OCC(F)(F)OC(F)(F)C(F)(F)OC(F)(F)C(F)(F)OC(F)(F)CO	inactive
CCOP(=S)(NC(C)C)Oc1ccccc1C(=O)OC(C)C (centres undefined)	inactive
c1nc[nH]n1	inactive
c1cc2c3c(cccc3c1)CC2	inactive

Problem: Give the logged outcome of this assay for the following molecule: O=C(O)C1C(C(=O)O)C2(Cl)C(Cl)=C(Cl)C1(Cl)C2(Cl)Cl (centres undefined)
Solution: inactive

Problem: For this molecule, state the assay outcome: "CN(C)C(=O)Cl"
Solution: inactive

Problem: Tell me the recorded outcome of this test for "Nc1ccc2ccccc2c1" .
Solution: inactive

Problem: Short answer needed: outcome of this test for CC(O)C(F)(F)C(F)(F)F (centres undefined) ?
Solution: inactive

Problem: Tell me the recorded outcome of this test for "CCCCN(CCCC)N=O" .
Solution: inactive

Problem: So what was the verdict on CCOP(=S)(Oc1ccc([N+](=O)[O-])cc1)c1ccccc1 (centres undefined) in this test?
Solution: active

Problem: Record lookup: outcome of this test for "CCOc1ccc(C(C)(C)COCc2cccc(Oc3ccccc3)c2)cc1" ?
Solution: inactive

Problem: Any idea what this test logged for "ClC(Cl)(Cl)c1ccccc1" ?
Solution: inactive

Problem: Which outcome was assigned to "O=[N+]([O-])c1ccccc1" in this test?
Solution: inactive

* * *

- Read-out: Actin alpha 1 (ACTA1), ACTA1 (gene 58)
- experiment_description: BSK_MyoF_ACTA1: BioMAP Diversity Plus: MyoF Assay for Actin alpha 1 (ACTA1) Biomarker Activity (AID 2284244)
- reported_conditions: primary human lung fibroblasts
The source made the active and inactive calls. Rule for the calls: active = hit-call score of the fitted dose curve at least 0.9, where 1 is the maximum; inactive = score below 0.9.
Form entry, call: pick from yes (1) (active), no (0) (inactive)

Some solved entries appear below for comparison.
molecule	assigned_class
OCC(F)(F)OC(F)(F)C(F)(F)OC(F)(F)CO	no (0)
O=C(O)C(F)(F)OC(F)(F)C(F)(F)OC(F)(F)F	no (0)
COP(=O)(O)OC	no (0)

Problem: Please share the test call associated with "O=c1ssc(Cl)c1Cl" .
Solution: yes (1)

Problem: What did the test return for "Nc1ccc([N+](=O)[O-])cc1Cl" ?
Solution: no (0)

Problem: Dear colleague, could you share the recorded outcome for "CCOP(=S)(OCC)SCn1nnc2ccccc2c1=O" when you have a moment?
Solution: no (0)

Problem: Assay result, entry "O=S(=O)(F)C(F)(F)C(F)(F)C(F)(F)C(F)(F)C(F)(F)C(F)(F)C(F)(F)C(F)(F)F" — outcome?
Solution: no (0)

Problem: What is the recorded call for this molecule in the test? "N#Cc1cc([N+](=O)[O-])ccc1N"
Solution: no (0)

* * *

- Read-out: flavin-containing dimethylaniline monooxygenases 3 (FMO3), FMO3 (gene 2328)
- experiment_description: LTEA_HepaRG_FMO3: Life Technologies and Expression Analysis (LTEA) Assay for flavin-containing dimethylaniline monooxygenases 3 (FMO3) using HepaRG (AID 2283453)
- reported_conditions: mRNA level, 48 h; actives raise or lower the signal
Active and inactive are the calls of the source. The calls were made as follows: active = hit-call score of the fitted dose curve at least 0.9, where 1 is the maximum; inactive = score below 0.9.
value_type: outcome

compound	outcome
CSC(C)(C)C=NO	inactive
ClC(Cl)(Cl)c1ccccc1	inactive
CN(C)C(=O)Cl	inactive
c1ccc(OP(Oc2ccccc2)Oc2ccccc2)cc1	inactive

Let us examine a further case.
Problem: Find the recorded outcome belonging to "O=[N+]([O-])c1ccc(Cl)c(Cl)c1" and report it.
Solution: inactive

* * *

- study_system: human Vitamin D Receptor (VDR), VDR (gene 7421)
- experiment_description: ATG_VDR_TRANS: Attagene TRANS-FACTORIAL HepG2 Assay for human Vitamin D Receptor (VDR) (AID 2283022)
- Procedure: ATG_TRANS is a cell-based, multiplexed-readout assay that uses HepG2, a human liver cell line, with measurements taken at 24 hours after chemical dosing in a 24-well plate.ATG_VDR_TRANS is one of 30 assay component(s) measured or calculated from the ATG_TRANS assay. […] This assay endpoint, ATG_VDR_TRANS, was analyzed in the positive analysis fitting direction relative to DMSO as the negative control and baseline of activity. […]
Records with an inconclusive call do not appear. Activity calls are given as the source filed them. How the source made its calls: active means hit-call score of the fitted dose curve at least 0.9, where 1 is the maximum; inconclusive means response in the unintended direction; inactive means score below 0.9.
value_type: outcome

Known outcome results, listed for orientation:
compound	outcome
CCCCOCCOP(=O)(OCCOCCCC)OCCOCCCC	inactive
FC(F)(F)C(F)(C(F)(F)F)C(F)(F)C(F)(F)CC1CO1 (centres undefined)	inactive
CC(C)(C)N(NC(=O)c1ccc(Cl)cc1)C(=O)c1ccccc1	inactive
Cc1ccc([N+](=O)[O-])cc1C	inactive
CCCCN(CC)C(=O)SCCC	inactive
CCOP(=S)(OCC)SCS(=O)(=O)CC	inactive
CSC(C)(C)C=NO	inactive
O=P1(N(CCCl)CCCl)NCCCO1 (centres undefined)	inactive
O=S(=O)(F)C(F)(F)C(F)(F)C(F)(F)C(F)(F)C(F)(F)C(F)(F)C(F)(F)C(F)(F)F	inactive
CC(O)C#N (centres undefined)	inactive

Problem: Find outcome (human Vitamin D Receptor (VDR), VDR (gene 7421)) for the entry "CO/N=C(/C(=O)OC)c1ccccc1COc1ccccc1C"
Solution: inactive

Problem: Which measured outcome belongs to "O=C(O)C(F)(F)C(F)(F)C(=O)O" , tested on human Vitamin D Receptor (VDR), VDR (gene 7421)?
Solution: inactive

Problem: Entry "c1nc[nH]n1" , system human Vitamin D Receptor (VDR), VDR (gene 7421): what outcome was measured?
Solution: inactive

Problem: Give the reported outcome for "Cc1cccc(N)c1" (system: human Vitamin D Receptor (VDR), VDR (gene 7421)).
Solution: inactive

* * *

- experiment_description: BSK_3C_Proliferation: Cell Proliferation Assessment in the BioMAP Diversity Plus: 3C Assay (AID 2283006)
- reported_conditions: primary human endothelial cells (HUVEC)
The source made the active and inactive calls. Rule for the calls: active = hit-call score of the fitted dose curve at least 0.9, where 1 is the maximum; inactive = score below 0.9.
Mark one answer only. Choices: active, inactive

Examples with answers:
compound	assigned_class
N#Cc1cc([N+](=O)[O-])ccc1N	inactive
O=P(OCC(Br)CBr)(OCC(Br)CBr)OCC(Br)CBr (stereo unspecified)	active
OCC1CO1 (stereo unspecified)	inactive
COP(=O)(O)OC	inactive
CCCCCCCc1ccc(O)cc1	active
O=c1ssc(Cl)c1Cl	active
CCOC(=O)c1ccccc1C(=O)OCC	inactive
ClC(Cl)=C(c1ccc(Cl)cc1)c1ccccc1Cl	active
Cc1ccc2c(c1N)C(=O)c1ccccc1C2=O	inactive
CC(C)(C)c1ccc(O)cc1	inactive

Problem: Would you mind telling me which call this test gave "CCOS(=O)(=O)OCC" ?
Solution: inactive

Problem: Fill in: this test's call for "C=CC(=O)OCC(CC)(COC(=O)C=C)COC(=O)C=C" is ___
Solution: active

Problem: Kindly provide the recorded test outcome for the following compound: "CCOP(=S)(OCC)SCS(=O)(=O)CC"
Solution: inactive

Problem: Lab log entry: CC(Cc1ccc(OCC(=O)O)cc1)NCC(O)c1csc(C(F)(F)F)n1 (stereo unspecified) — outcome as called in the assay?
Solution: inactive

Problem: Called result for "Nc1cc2c3c(c1)C(c1ccccc1)=N[C@@H](NC(=O)c1cccnc1)C(=O)N3CC2"
Solution: inactive

Problem: Tell me the assay call for "CCNc1nc(Cl)nc(NC(C)(C)C)n1" please.
Solution: inactive

* * *

- Read-out: Vascular cell adhesion molecule 1 (VCAM1), VCAM1 (gene 7412)
- experiment_description: BSK_LPS_VCAM1: BioMAP Diversity Plus: LPS Assay for Vascular cell adhesion molecule 1 (VCAM1) Biomarker Activity (AID 2283086)
- reported_conditions: primary human HUVEC with PBMC; actives raise or lower the signal
- Description: BSK_LPS is a cell-based, multiplexed-readout assay that uses umbilical vein endothelium and peripheral blood mononuclear cells, a human vascular primary cell co-culture, with measurements taken at 24 hours after chemical dosing in a 96-well plate.BSK_LPS_VCAM1 is an assay component measured in the BSK_LPS assay. It measures VCAM-1 antibody related to regulation of gene expression using ELISA technology.Data from the assay component BSK_LPS_VCAM1 was analyzed into 1 assay endpoint. […]
Calls of active or inactive are those of the source. How the source made its calls: active means hit-call score of the fitted dose curve at least 0.9, where 1 is the maximum; inactive means score below 0.9.
Form entry, call: pick from active, inactive

compound	assigned_class
CCOP(=S)(Oc1ccc([N+](=O)[O-])cc1)c1ccccc1 (centres undefined)	inactive
CCCN(CCC)c1c([N+](=O)[O-])cc(C(C)C)cc1[N+](=O)[O-]	active
ClC(Cl)c1ccccc1	inactive
CCCCC(CC)COP(=O)(Oc1ccccc1)Oc1ccccc1 (centres undefined)	active
c1ccc2c(c1)Nc1ccccc1S2	inactive
CC(Cc1ccc(OCC(=O)O)cc1)NCC(O)c1csc(C(F)(F)F)n1 (centres undefined)	inactive
c1ccc2c(c1)sc1ccccc12	inactive
CCCCC(CC)COC(=O)c1c(Br)c(Br)c(Br)c(Br)c1C(=O)OCC(CC)CCCC (centres undefined)	inactive

Next item in the queue.
Problem: # outcome recorded in this test, key = "N#Cc1c(-c2ccc(Cl)cc2)[nH]c(C(F)(F)F)c1Br"
Solution: active
